target: human 5-HT2A receptor (Homo sapiens, UniProt P28223); construct: expressed in transfected cells; host or cells: NIH-3T3 mouse embryonic fibroblasts; experiment: Activation potency and efficacy at the 5-HT2A receptor (FLIPR calcium, NIH-3T3 cells); assay type: cell-based; details: NIH3T3; relative to 5-HT (100%); read-out: h5-HT2A activation efficacy Emax ± SD
Sequence (P28223 whole entry): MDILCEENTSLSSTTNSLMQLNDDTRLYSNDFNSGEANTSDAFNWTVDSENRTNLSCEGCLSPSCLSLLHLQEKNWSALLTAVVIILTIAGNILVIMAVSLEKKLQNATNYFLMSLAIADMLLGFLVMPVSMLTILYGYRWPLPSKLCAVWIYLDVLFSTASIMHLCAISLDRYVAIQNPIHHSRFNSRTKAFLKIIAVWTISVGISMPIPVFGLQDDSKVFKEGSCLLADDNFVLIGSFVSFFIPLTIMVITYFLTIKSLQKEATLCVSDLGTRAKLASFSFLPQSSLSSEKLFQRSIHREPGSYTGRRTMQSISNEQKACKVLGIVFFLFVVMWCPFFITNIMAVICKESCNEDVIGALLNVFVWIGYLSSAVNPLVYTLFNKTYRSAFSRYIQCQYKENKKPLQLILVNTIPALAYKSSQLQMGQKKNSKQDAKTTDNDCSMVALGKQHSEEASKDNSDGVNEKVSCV
Label rule, in plain words: Emax of 40% and up is class 1, under 40% is class 0.

Below are worked cases with known answers.
Lookup: Reported Emax reaches at least 40% for CCOc1cc(OC)c(CCN)c(OC)c1 [Ψ-2C-O-2, 2,6-dimethoxy-4-ethoxyphenethylamine] ?
Found: class 1

Lookup: Can you check COc1cc(OCC(F)F)cc(OC)c1CC(C)N (stereo not drawn) [Ψ-MDFEM] next?
Found: class 0

Lookup: Can you check C=C(C)COc1cc(OC)c(CCN)c(OC)c1 [Ψ-2C-O-3] next?
Found: class 0

Lookup: Can you check COc1cc(OCC(F)(F)F)cc(OC)c1CC(C)N (stereo not drawn) [Ψ-MTFEM] next?
Found: class 0

Lookup: Can you check C=CCOc1cc(OC)c(CC(C)N)c(OC)c1 (stereo not drawn) [Ψ-MALM, 4-allyloxy-2,6-dimethoxyamphetamine] next?
Found: class 1

Further cases:
Lookup: Reported Emax reaches at least 40% for C=C(C)COc1cc(OC)c(CC(C)N)c(OC)c1 (stereo not drawn) [Ψ-MMALM, 2,6-dimethoxy-4-methallyloxyamphetamine] ?
Found: class 1

Lookup: Can you check COc1cc(OCc2ccccc2)cc(OC)c1CCN [Ψ-2C-O-27, 4-benzyloxy-2,6-dimethoxyphenethylamine] next?
Found: class 1

Lookup: Can you check COc1cc(OC)c(CCN)c(OC)c1 [Ψ-2C-O-1, 2,4,6-trimethoxyphenethylamine] next?
Found: class 1

Lookup: Can you check C=CCOc1cc(OC)c(CCN)c(OC)c1 [Ψ-2C-O-16, 4-allyloxy-2,6-dimethoxyphenethylamine] next?
Found: class 1

Lookup: Can you check COc1cc(OCCF)cc(OC)c1CC(C)N (stereo not drawn) [Ψ-MFEM] next?
Found: class 0

Lookup: Can you check COc1cc(OCC(F)F)cc(OC)c1CCN [Ψ-2C-O-21.5] next?
Found: class 0

Lookup: Can you check CCOc1cc(OC)c(CC(C)N)c(OC)c1 (stereo not drawn) [Ψ-MEM, 2,6-dimethoxy-4-ethoxyamphetamine] next?
Found: class 1

Lookup: Can you check COc1cc(OCCF)cc(OC)c1CCN [Ψ-2C-O-21] next?
Found: class 1

Lookup: Can you check COc1cc(OC(F)F)cc(OC)c1CC(C)N (stereo not drawn) [Ψ-DODFMO] next?
Found: class 1

Lookup: Can you check COc1cc(OC)c(CC(C)N)c(OC)c1 (stereo not drawn) [TMA-6, 2,4,6-trimethoxyamphetamine] next?
Found: class 1

Lookup: Can you check COc1cc(OC(F)F)cc(OC)c1CCN [Ψ-2C-O-35] next?
Found: class 0

---

Below, each entry is listed with its recorded pKi.
target: h5-HT2A receptor (Homo sapiens)
Sequence (P28223 whole entry): as above
Remember the convention: pKi equals -log10 of concentration in molar.

Consider the worked cases shown below.
Lookup: Under h5-HT2A receptor (Homo sapiens): pKi value of COc1cc(OCc2ccccc2)cc(OC)c1CC(C)N (centres unmarked) [Ψ-MBnM, 4-benzyloxy-2,6-dimethoxyamphetamine] ?
Found: 7.68

Lookup: Can you check COc1cc(OCC(F)(F)F)cc(OC)c1CCN [Ψ-2C-O-22] next?
Found: 6.22

Further cases:
Lookup: Under h5-HT2A receptor (Homo sapiens): pKi value of C=C(C)COc1cc(OC)c(CCN)c(OC)c1 [Ψ-2C-O-3] ?
Found: 7.49

Lookup: Can you check CCOc1cc(OC)c(CCN)c(OC)c1 [Ψ-2C-O-2, 2,6-dimethoxy-4-ethoxyphenethylamine] next?
Found: 6.40

Lookup: Can you check COc1cc(OCCF)cc(OC)c1CC(C)N (centres unmarked) [Ψ-MFEM] next?
Found: 5.85

---

molecular target: human 5-HT2A receptor (Homo sapiens, UniProt P28223); assay: Activation potency and efficacy at the 5-HT2A receptor (FLIPR calcium, NIH-3T3 cells)
Below, each entry is listed with its recorded EC50.
// units = nM; emit number, no label

Consider the worked cases shown below.
Lookup: I'd like to know its EC50. The compound in question is COc1cc(OCC(F)F)cc(OC)c1CC(C)N (stereo not shown)
Found: 1100

Lookup: Can you check COc1cc(OC)c(CC(C)N)c(OC)c1 (stereo not shown) next?
Found: 70

Lookup: Can you check COc1cc(OCCF)cc(OC)c1CC(C)N (stereo not shown) next?
Found: 1300

Lookup: Can you check COc1cc(OC(F)F)cc(OC)c1CCN next?
Found: 260

Lookup: Can you check COc1cc(OCC(F)F)cc(OC)c1CCN next?
Found: 740

Here is the next item to consider.
Lookup: I'd like to know its EC50. The compound in question is COc1cc(OCc2ccccc2)cc(OC)c1CC(C)N (stereo not shown)
Found: 430

---

target: mTAAR1 (Mus musculus, UniProt Q923Y8); test: Radioligand binding, mouse TAAR1 ([3H]RO5166017)
Sequence (Q923Y8 whole entry): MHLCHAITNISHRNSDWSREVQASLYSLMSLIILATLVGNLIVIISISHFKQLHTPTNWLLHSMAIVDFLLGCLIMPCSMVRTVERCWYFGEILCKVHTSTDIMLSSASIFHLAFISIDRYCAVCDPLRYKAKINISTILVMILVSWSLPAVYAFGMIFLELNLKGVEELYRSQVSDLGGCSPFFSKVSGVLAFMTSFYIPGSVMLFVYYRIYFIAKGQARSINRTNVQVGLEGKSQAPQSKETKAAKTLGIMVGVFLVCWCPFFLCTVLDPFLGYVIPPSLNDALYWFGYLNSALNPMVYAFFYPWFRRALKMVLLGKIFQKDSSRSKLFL
reported property: pKi
Remember the convention: pKi equals -log10 of concentration in molar.

Consider the worked cases shown below.
Lookup: I'd like to know its pKi. The molecule in question is COc1cc(OCc2ccccc2)cc(OC)c1CCN [Ψ-2C-O-27, 4-benzyloxy-2,6-dimethoxyphenethylamine]
Found: 6.21

Lookup: Can you check C=C(C)COc1cc(OC)c(CCN)c(OC)c1 [Ψ-2C-O-3] next?
Found: 6.92

Lookup: Can you check CCOc1cc(OC)c(CCN)c(OC)c1 [Ψ-2C-O-2, 2,6-dimethoxy-4-ethoxyphenethylamine] next?
Found: 6.64

Lookup: Can you check C=CCOc1cc(OC)c(CCN)c(OC)c1 [Ψ-2C-O-16, 4-allyloxy-2,6-dimethoxyphenethylamine] next?
Found: 6.82

Further cases:
Lookup: I'd like to know its pKi. The molecule in question is COc1cc(OCC(F)(F)F)cc(OC)c1CCN [Ψ-2C-O-22]
Found: 6.68

Lookup: Can you check COc1cc(OCCF)cc(OC)c1CCN [Ψ-2C-O-21] next?
Found: 6.49

Lookup: Can you check COc1cc(OC)c(CCN)c(OC)c1 [Ψ-2C-O-1, 2,4,6-trimethoxyphenethylamine] next?
Found: 6.23

Lookup: Can you check COc1cc(OC)c(CC(C)N)c(OC)c1 (stereo not drawn) [TMA-6, 2,4,6-trimethoxyamphetamine] next?
Found: 6.07

Lookup: Can you check COc1cc(OC(F)F)cc(OC)c1CC(C)N (stereo not drawn) [Ψ-DODFMO] next?
Found: 6.07

---

target: h5-HT1A receptor (Homo sapiens, UniProt P08908)
Sequence (P08908 whole entry): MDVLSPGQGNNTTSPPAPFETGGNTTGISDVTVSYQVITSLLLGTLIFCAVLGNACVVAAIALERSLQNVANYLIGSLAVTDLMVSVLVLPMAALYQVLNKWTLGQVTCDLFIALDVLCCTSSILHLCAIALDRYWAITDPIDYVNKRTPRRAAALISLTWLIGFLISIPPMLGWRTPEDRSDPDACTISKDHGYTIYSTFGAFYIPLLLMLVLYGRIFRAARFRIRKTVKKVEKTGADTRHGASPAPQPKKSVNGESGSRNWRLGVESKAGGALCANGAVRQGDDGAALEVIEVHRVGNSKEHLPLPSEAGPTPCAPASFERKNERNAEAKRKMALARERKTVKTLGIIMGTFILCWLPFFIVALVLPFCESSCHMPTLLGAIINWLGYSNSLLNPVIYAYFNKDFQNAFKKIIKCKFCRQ
Criterion: Ki strictly under 2000 nM. Met: MET. Not met: NOT MET.

Below are worked cases with known answers.
Lookup: Given the entry COc1cc(OCc2ccccc2)cc(OC)c1CCN [Ψ-2C-O-27, 4-benzyloxy-2,6-dimethoxyphenethylamine] , would its reported Ki be below 2000 nM?
Found: NOT MET

Lookup: Can you check COc1cc(OC(F)F)cc(OC)c1CC(C)N (stereo not shown) [Ψ-DODFMO] next?
Found: NOT MET

Lookup: Can you check COc1cc(OCCF)cc(OC)c1CC(C)N (stereo not shown) [Ψ-MFEM] next?
Found: NOT MET

Further cases:
Lookup: Given the entry COc1cc(OC(F)F)cc(OC)c1CCN [Ψ-2C-O-35] , would its reported Ki be below 2000 nM?
Found: NOT MET

Lookup: Can you check C=CCOc1cc(OC)c(CCN)c(OC)c1 [Ψ-2C-O-16, 4-allyloxy-2,6-dimethoxyphenethylamine] next?
Found: MET

Lookup: Can you check COc1cc(OCC(F)(F)F)cc(OC)c1CCN [Ψ-2C-O-22] next?
Found: NOT MET

Lookup: Can you check COc1cc(OC)c(CCN)c(OC)c1 [Ψ-2C-O-1, 2,4,6-trimethoxyphenethylamine] next?
Found: MET

Lookup: Can you check COc1cc(OCCF)cc(OC)c1CCN [Ψ-2C-O-21] next?
Found: MET

Lookup: Can you check COc1cc(OC)c(CC(C)N)c(OC)c1 (stereo not shown) [TMA-6, 2,4,6-trimethoxyamphetamine] next?
Found: NOT MET

Lookup: Can you check COc1cc(OCc2ccccc2)cc(OC)c1CC(C)N (stereo not shown) [Ψ-MBnM, 4-benzyloxy-2,6-dimethoxyamphetamine] next?
Found: NOT MET

---

molecular target: h5-HT2A receptor (Homo sapiens); experiment: Radioligand binding, 5-HT2A receptor ([3H]ketanserin); conditions: preference for 5-HT2A (Ki 5-HT1A divided by Ki 5-HT2A)
Label rule, in plain words: Selectivity (binding ratio) 5-HT2A/5-HT1A of 20 and up is t, under 20 is f.

Lookup: Reported Selectivity (binding ratio) 5-HT2A/5-HT1A reaches at least 20 for CCOc1cc(OC)c(CCN)c(OC)c1 [Ψ-2C-O-2, 2,6-dimethoxy-4-ethoxyphenethylamine] ?
Found: f

Lookup: Can you check COc1cc(OC)c(CCN)c(OC)c1 [Ψ-2C-O-1, 2,4,6-trimethoxyphenethylamine] next?
Found: f

Lookup: Can you check C=CCOc1cc(OC)c(CCN)c(OC)c1 [Ψ-2C-O-16, 4-allyloxy-2,6-dimethoxyphenethylamine] next?
Found: f

Turning now to a further molecule:
Lookup: Reported Selectivity (binding ratio) 5-HT2A/5-HT1A reaches at least 20 for COc1cc(OCCF)cc(OC)c1CCN [Ψ-2C-O-21] ?
Found: f
